# measured on: BTK protein (Homo sapiens)
# Construct: endogenous in cells; host or cells: TMD-8 cells
# Sequence (Q06187 whole entry): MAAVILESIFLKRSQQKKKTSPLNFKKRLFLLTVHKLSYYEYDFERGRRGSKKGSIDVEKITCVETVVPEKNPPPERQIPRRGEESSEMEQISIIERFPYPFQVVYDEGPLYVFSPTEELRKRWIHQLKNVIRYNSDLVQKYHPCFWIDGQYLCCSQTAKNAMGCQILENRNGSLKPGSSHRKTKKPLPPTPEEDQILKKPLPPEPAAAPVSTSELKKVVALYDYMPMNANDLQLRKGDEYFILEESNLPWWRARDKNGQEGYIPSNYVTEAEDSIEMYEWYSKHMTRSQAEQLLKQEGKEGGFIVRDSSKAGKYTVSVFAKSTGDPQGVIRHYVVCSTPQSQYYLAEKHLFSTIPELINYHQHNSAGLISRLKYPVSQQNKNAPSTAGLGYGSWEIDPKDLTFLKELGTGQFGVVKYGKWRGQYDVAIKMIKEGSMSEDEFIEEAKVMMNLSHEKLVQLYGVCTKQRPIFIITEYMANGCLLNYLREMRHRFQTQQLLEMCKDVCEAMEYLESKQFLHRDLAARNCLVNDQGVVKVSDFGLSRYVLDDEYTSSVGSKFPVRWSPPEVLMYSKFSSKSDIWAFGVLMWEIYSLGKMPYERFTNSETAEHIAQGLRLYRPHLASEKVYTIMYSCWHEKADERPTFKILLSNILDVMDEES
# test method notes: Measurement of BTK protein degradation ability in TMD-8 cells (Western blotting)
# Assay type: cell-based
# condition info: compound 100 nM, harvested after 24 hours
observed property: BTK degradation (%) 100 nM

compound="Cc1cc(-c2ccnc(Nc3ccc(C4CN(CC5CCN(c6ccc7c(c6)C(=O)N(C6CCC(=O)NC6=O)C7=O)CC5)C4)cc3)n2)ccc1CNC(=O)N1CC(OC(C)C)C1 (stereo not drawn)" recorded_result=100.0%
compound="Cc1cc(-c2ccnc(Nc3cnn(C4CCN(CC5CN(C(=O)c6cccc(NC7CCC(=O)NC7=O)c6)C5)CC4)c3)n2)ccc1CNC(=O)N1CC(OC(C)C)C1 (stereo not drawn)" recorded_result=89.0%
compound="Cc1cc(-c2ccnc(Nc3ccc(N4CCN(C5CCN(C(=O)c6cccc(NC7CCC(=O)NC7=O)c6)CC5)CC4)cc3)n2)ccc1CNC(=O)N1CC(OC(C)C)C1 (stereo not drawn)" recorded_result=97.0%
compound="Cc1cc(-c2ccnc(Nc3cnn(C4CCN(CC5CCN(c6ccc7c(c6)C(=O)N(C6CCC(=O)NC6=O)C7=O)CC5)CC4)c3)n2)ccc1CNC(=O)N1CC(OC(C)C)C1 (stereo not drawn)" recorded_result=99%
compound="Cc1cc(-c2ccnc(Nc3ccc(CN4CCN(CC5CCN(c6cccc(NC7CCC(=O)NC7=O)c6)CC5)CC4)cc3)n2)ccc1CNC(=O)N1CC(OC(C)C)C1 (stereo not drawn)" recorded_result=98.5%
compound=Cc1cc(-c2ccnc(Nc3ccc(N4CCN(CC5CCN(c6cccc(N7CCC(=O)NC7=O)c6)CC5)CC4)cc3)n2)ccc1CNC(=O)c1cnn(C(C)C)c1 recorded_result=99.5%
compound=Cc1cc(-c2ccnc(Nc3ccc(C4CCN(CC5CCN(c6ccc(N7CCC(=O)NC7=O)cc6)CC5)CC4)cc3)n2)ccc1CNC(=O)c1cn(C(C)(C)C)nn1 recorded_result=98.0%
compound="Cc1cc(-c2ccnc(Nc3ccc(N4CCN(CC5CCN(c6ccc7c(c6)C(=O)N(C6CCC(=O)NC6=O)C7=O)CC5)CC4)cc3)n2)ccc1CNC(=O)c1cn(C(C)(C)C)nn1 (stereo not drawn)" recorded_result=96.5%
compound="Cc1cc(-c2ccnc(Nc3ccc(N4CCN(CC5CCN(c6ccc(OC7CCC(=O)NC7=O)cn6)CC5)CC4)cc3)n2)ccc1CNC(=O)N1CC(OC(C)C)C1 (stereo not drawn)" recorded_result=99.3%
compound="Cc1cc(-c2ccnc(Nc3ccc(N4CCN(CC5CCN(c6ccc7c(c6)C(=O)N(C6CCC(=O)NC6=O)C7=O)CC5)CC4)cc3)n2)ccc1COC(=O)N1CC(OC(C)C)C1 (stereo not drawn)" recorded_result=91.5%
compound="Cc1cc(-c2ccnc(Nc3cnn(C4CCN(CC5CN(c6ccc7c(c6)C(=O)N(C6CCC(=O)NC6=O)C7=O)C5)CC4)c3)n2)ccc1CNC(=O)c1cnn(C(C)(C)C)c1 (stereo not drawn)" recorded_result=98.5%
compound="Cc1cc(-c2ccnc(Nc3ccc(N4CCN(CC5CCN(c6ccc(NC7CCC(=O)NC7=O)cn6)CC5)CC4)cc3)n2)ccc1CNC(=O)c1cnn(C(C)(C)C)c1 (stereo not drawn)" recorded_result=99.5%
compound="Cc1cc(-c2ccnc(Nc3ccc(N4CCN(CC5CCN(c6cccc(NC7CCC(=O)NC7=O)c6)CC5)CC4)cc3)n2)ccc1CNC(=O)c1cn(C(C)(C)C)nn1 (stereo not drawn)" recorded_result=99.0%
compound=Cc1cc(-c2ccnc(Nc3ccc(N4CCN(CC5CCN(C(=O)c6cccc(N7CCC(=O)NC7=O)c6)CC5)CC4)cc3)n2)ccc1CNC(=O)N1CC(OC(C)C)C1 recorded_result=87%
compound="Cc1cc(-c2ccnc(Nc3ccc(CN4CCN(CC5CCN(c6cccc(NC7CCC(=O)NC7=O)c6)CC5)CC4)cc3)n2)ccc1CNC(=O)c1cn(C(C)(C)C)nn1 (stereo not drawn)" recorded_result=99.5%
compound=Cc1cc(-c2ccnc(Nc3ccc(C4CCN(CC5CCN(c6cccc(N7CCC(=O)NC7=O)c6)CC5)CC4)cc3)n2)ccc1CNC(=O)c1cn(C(C)(C)C)nn1 recorded_result=99.0%
compound="Cc1cc(-c2ccnc(Nc3ccc(N4CCN(CC5CN(C(=O)c6cccc(NC7CCC(=O)NC7=O)c6)C5)CC4)cc3)n2)ccc1CNC(=O)c1cn(C(C)(C)C)nn1 (stereo not drawn)" recorded_result=98.5%
compound="Cc1cc(-c2ccnc(Nc3ccc(C4CCN(CC5CCN(c6ccc(OC7CCC(=O)NC7=O)cc6)CC5)CC4)cc3)n2)ccc1CNC(=O)N1CC(OC(C)C)C1 (stereo not drawn)" recorded_result=99.5%
compound="Cc1cc(-c2ccnc(Nc3ccc4c(c3)CN(CC3CCN(c5ccc6c(c5)C(=O)N(C5CCC(=O)NC5=O)C6=O)CC3)CC4)n2)ccc1CNC(=O)N1CC(OC(C)C)C1 (stereo not drawn)" recorded_result=97.5%
compound="Cc1cc(-c2ccnc(Nc3ccc(N4CCN(C5CCN(c6ccc7c(c6)C(=O)N(C6CCC(=O)NC6=O)C7=O)CC5)CC4)cc3)n2)ccc1CNC(=O)N1CC(OC(C)C)C1 (stereo not drawn)" recorded_result=99.5%
compound="Cc1cc(-c2ccnc(Nc3ccc(N4CCN(CC5CN(c6cc7c(cc6F)C(=O)N(C6CCC(=O)NC6=O)C7=O)C5)CC4)cc3)n2)ccc1CNC(=O)N1CC(OC(C)C)C1 (stereo not drawn)" recorded_result=99%
